System: Pepsin
Construct: purchased Merck Millipore
EXPERIMENT: Protease stability in simulated gastric fluid (Pepsin-SGF, FaSSGF)
Assay type: in vitro ADME
EXPERIMENTAL_CONDITIONS: simulated gastric fluid with pepsin (Pepsin-SGF), 60 min, 1 μM peptide, 37° C., read-out: FaSSGF 60 (min), remaining percent of peptide
Starred links: 1 amine or outer side, 2 acyl side, 3 side chain; linkers in the order of their positions; H or OH if unused. Positions of bridges follow the written chain, without caps; N, C: chain ends. Non-standard residues stand in square brackets, D forms with d. Residues, ends and D or L forms follow the SMILES beside them. *: point of attachment. 2Nal = N[C@@H](Cc1ccc2ccccc2c1)C(=O)O; X4 = CN(CCCCCC(=O)[*:2])[*:1]; αMeL = CC(C)C[C@](C)(N)C(=O)O; Me2NCH2CH2 = CN(C)CC*
MEASUREMENT_TYPE: remaining at 1 h, 1 µM (%)

COMPOUND	MEASUREMENT_TYPE	RECORDED_MEASUREMENT
CC(C)C[C@@H](NC(=O)[C@H](CC(N)=O)NC(=O)[C@@H]1CC(=O)N(C)CCCCCC(=O)N[C@H]2CSSC[C@H](NC(=O)[C@H](CCC(N)=O)NC(=O)[C@H](Cc3c[nH]c4ccccc34)NC(=O)[C@H]([C@@H](C)O)NC(=O)[C@H](CC(N)=O)NC2=O)C(=O)N[C@@H](Cc2ccc(OCCN(C)C)cc2)C(=O)N[C@@H](Cc2ccc3ccccc3c2)C(=O)N[C@@](C)(CC(C)C)C(=O)N1)C(N)=O [compound 40] ([X4]CNTWQCY(Me2NCH2CH2)[2Nal][αMeL]DN[dL]-NH2; disulfide 2-7; lactam N-11)	remaining at 1 h, 1 µM	12
